Tested on: U2OS
Test: cell viability relative to DMSO; higher = less toxic
Conditions: 72 h; 100 nM
Each entry below carries its recorded cell viability.
The response must be a number in % with no trailing unit.

Reference set (4 entries):
cell viability lookup needed for C[Se]C[C@H](N)C(=O)O [Se-methylselenocysteine] , thanks. 95.5

Next record, please: COC(=O)/C=C/C(=O)N[C@@H]1CC[C@@]2(O)[C@H]3Cc4ccc(O)c5c4[C@@]2(CCN3CC2CC2)[C@H]1O5 [beta-funaltrexamine] 101

Also, CN[C@@H]1[C@H](O[C@H]2[C@H](O[C@H]3[C@H](O)[C@@H](O)[C@H](NC(=N)N)[C@@H](O)[C@@H]3NC(=N)N)O[C@@H](C)[C@]2(O)CO)O[C@@H](CO)[C@H](O)[C@H]1O [dihydrostreptomycin] please. 97.3

N#CCCCSC(=N)N [kevetrin] , same question. 96.3

More entries:
What measured cell viability goes with C[C@H]1O[C@@H](Oc2c(-c3cc(O)c(O)c(O)c3)oc3cc(O)cc(O)c3c2=O)[C@@H](O)[C@@H](O)[C@@H]1O [myricitrin] ? 94.7

Then this molecule: Nc1nonc1/C(=N/O)Nc1ccc(F)c(Cl)c1 [IDO5L] 102

What about this molecule? Cc1ccc2c(c1)Cc1c(C(=O)NN3CCCCC3)nn(-c3ccc(Cl)cc3Cl)c1-2 [GP1a] 97.7

Next entry: O=C(O[C@H]1C[N+]2(CCCOc3ccccc3)CCC1CC2)C(O)(c1cccs1)c1cccs1 [aclidinium] 97.1

----------
Documented cell viability across a set of compounds
Tested on: U2OS
Test: cell viability relative to DMSO; higher = less toxic
Conditions: 72 h; 10 nM

Tell me the measured cell viability of `NC(=O)NCCC[C@H](N)C(=O)O` , please. 102%

Others:
# input compound: `Cn1c(-c2ccccc2)nnc1S(C)(=O)=O` ; wanted: its cell viability 96.9%

Also `CNC(=O)c1c(I)c(C(=O)NCC(=O)Nc2c(I)c(C(=O)O)c(I)c(C(=O)NCCO)c2I)c(I)c(N(C)C(C)=O)c1I` ? 96.9%

Next: `CN(C)CCc1ccc(O)cc1` 96.1%

Same for `Cc1ccc(CCCO)c(NCc2ccc3nc(NCCCN4CCOCC4)n(Cc4nc(C)ccc4O)c3c2)c1` 97.1%

Would you kindly repeat that for `CO[C@@]1(NC(=O)CSC[C@@H](N)C(=O)O)C(=O)N2C(C(=O)O)=C(CSc3nnnn3C)CS[C@@H]21` ? 98.8%

Next compound: NCC1CC(=O)N(Cc2ccccc2)C1 (centres undefined) 104%

Could you do the same for `O=C(O)CN1C(=O)c2cccc3cccc(c23)C1=O` , please? 96.6%

Try CC(=O)O[C@]1(C(C)=O)CC[C@H]2[C@@H]3C=C(Cl)C4=CC(=O)CC[C@]4(C)[C@H]3CC[C@@]21C [chlormadinone-acetate] next. 92.7%

----------
System: Caco-2
Experiment: cell viability relative to DMSO; higher = less toxic
Conditions: 72 h; 1 nM
quantity_kind: cell viability (%)
Kindly answer with a numeric value in %, unit omitted.

Consider the following illustrative entries.
Which cell viability is reported for this compound? `CNC(=O)c1c(-c2ccc(F)cc2)oc2cc(N(CCO)S(C)(=O)=O)c(C3CC3)cc12` 94

Further, for `Cc1cc2ncc(C(=O)NCC(C)(C)NCC(=O)N3CCC[C@H]3C#N)cn2n1` ? 103

Others:
What does the record list as cell viability for `CC(=O)O[C@@]12CO[C@@H]1C[C@H](O)[C@@]1(C)C(=O)[C@H](O)C3=C(C)[C@@H](O)C[C@@](O)([C@@H](OC(=O)c4ccccc4)[C@H]21)C3(C)C` ? 102

Continue with `N=C(Nc1ccccc1)c1cccs1` 89.4
